- MEASUREMENT TARGET: AmQNS (quinolone synthase) (Aegle marmelos)
- Sequence (M1HE54 entry or part of it): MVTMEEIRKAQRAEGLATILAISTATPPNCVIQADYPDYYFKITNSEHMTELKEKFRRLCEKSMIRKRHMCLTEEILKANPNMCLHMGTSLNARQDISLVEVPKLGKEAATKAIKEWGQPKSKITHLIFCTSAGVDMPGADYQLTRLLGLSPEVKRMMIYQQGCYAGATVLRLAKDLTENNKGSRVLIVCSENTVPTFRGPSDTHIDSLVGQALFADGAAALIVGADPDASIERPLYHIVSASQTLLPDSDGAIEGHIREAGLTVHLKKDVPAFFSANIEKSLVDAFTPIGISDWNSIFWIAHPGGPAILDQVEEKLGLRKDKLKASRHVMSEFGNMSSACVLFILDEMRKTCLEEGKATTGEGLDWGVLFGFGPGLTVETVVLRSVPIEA
- PROTOCOL SUMMARY: Surface plasmon resonance (SPR) AmQNS-substrate interaction studies
- Assay type: binding
- COND: SPR association rate, AmQNS immobilized on GLM chip, 30 °C, Langmuir 1:1 model
Hi! Could you tag entries with association rate constant (kon) below 40000 M⁻¹ s⁻¹ as satisfied, and those at or above as not satisfied? Much appreciated.

GIVEN SMILES: CC(C)(COP(=O)(O)OP(=O)(O)OC[C@H]1O[C@@H](n2cnc3c(N)ncnc32)[C@H](O)[C@@H]1OP(=O)(O)O)[C@@H](O)C(=O)NCCC(=O)NCCSC(=O)CC(=O)O
MEASUREMENT TARGET: AmQNS (quinolone synthase) (Aegle marmelos)
GROUP LABEL: not satisfied

// query Threshold test, association rate constant (kon) < 40000 M⁻¹ s⁻¹: `CCCCCCCCCCCCCCCC(=O)SCCNC(=O)CCNC(=O)[C@H](O)C(C)(C)COP(=O)(O)OP(=O)(O)OC[C@H]1O[C@@H](n2cnc3c(N)ncnc32)[C@H](O)[C@@H]1OP(=O)(O)O`
// result not satisfied

// query Threshold test, association rate constant (kon) < 40000 M⁻¹ s⁻¹: `CNc1ccccc1C(=O)SCCNC(=O)CCNC(=O)[C@H](O)C(C)(C)COP(=O)(O)OP(=O)(O)OC[C@H]1O[C@@H](n2cnc3c(N)ncnc32)[C@H](O)[C@@H]1OP(=O)(O)O`
// result not satisfied

// query Threshold test, association rate constant (kon) < 40000 M⁻¹ s⁻¹: `CCCCCC(=O)SCCNC(=O)CCNC(=O)[C@H](O)C(C)(C)COP(=O)(O)OP(=O)(O)OC[C@H]1O[C@@H](n2cnc3c(N)ncnc32)[C@H](O)[C@@H]1OP(=O)(O)O`
// result not satisfied

// query Threshold test, association rate constant (kon) < 40000 M⁻¹ s⁻¹: `CCCCCCCCCCCCCCCCCC(=O)SCCNC(=O)CCNC(=O)[C@H](O)C(C)(C)COP(=O)(O)OP(=O)(O)OC[C@H]1O[C@@H](n2cnc3c(N)ncnc32)[C@H](O)[C@@H]1OP(=O)(O)O`
// result satisfied

// query Threshold test, association rate constant (kon) < 40000 M⁻¹ s⁻¹: `CC(C)(COP(=O)(O)OP(=O)(O)OC[C@H]1O[C@@H](n2cnc3c(N)ncnc32)[C@H](O)[C@@H]1OP(=O)(O)O)[C@@H](O)C(=O)NCCC(=O)NCCSC(=O)c1ccccc1`
// result satisfied

// query Threshold test, association rate constant (kon) < 40000 M⁻¹ s⁻¹: `CCCC(=O)SCCNC(=O)CCNC(=O)[C@H](O)C(C)(C)COP(=O)(O)OP(=O)(O)OC[C@H]1O[C@@H](n2cnc3c(N)ncnc32)[C@H](O)[C@@H]1OP(=O)(O)O`
// result satisfied

// query Threshold test, association rate constant (kon) < 40000 M⁻¹ s⁻¹: `CCCCCCCCCCCCCC(=O)SCCNC(=O)CCNC(=O)[C@H](O)C(C)(C)COP(=O)(O)OP(=O)(O)OC[C@H]1O[C@@H](n2cnc3c(N)ncnc32)[C@H](O)[C@@H]1OP(=O)(O)O`
// result satisfied

// query Threshold test, association rate constant (kon) < 40000 M⁻¹ s⁻¹: `CC(C)(COP(=O)(O)OP(=O)(O)OC[C@H]1O[C@@H](n2cnc3c(N)ncnc32)[C@H](O)[C@@H]1OP(=O)(O)O)[C@@H](O)C(=O)NCCC(=O)NCCSC(=O)/C=C/c1ccc(O)cc1`
// result not satisfied

// query Threshold test, association rate constant (kon) < 40000 M⁻¹ s⁻¹: `COc1cc(/C=C/C(=O)SCCNC(=O)CCNC(=O)[C@H](O)C(C)(C)COP(=O)(O)OP(=O)(O)OC[C@H]2O[C@@H](n3cnc4c(N)ncnc43)[C@H](O)[C@@H]2OP(=O)(O)O)ccc1O`
// result not satisfied

// query Threshold test, association rate constant (kon) < 40000 M⁻¹ s⁻¹: `COc1cc(/C=C/C(=O)SCCNC(=O)CCNC(=O)[C@H](O)C(C)(C)COP(=O)(O)OP(=O)(O)OC[C@H]2O[C@@H](n3cnc4c(N)ncnc43)[C@H](O)[C@@H]2OP(=O)(O)O)cc(OC)c1O`
// result not satisfied

Each recorded value in this set is attributed to paper PMC11093982.
